Target: mouse LTBP1-proTGFβ1 complex (mouse, UniProt Q8CG19 339-1712; P04202 30-390)
Sequence (Q8CG19 339-1712 limits assumed, chain 1 of 2): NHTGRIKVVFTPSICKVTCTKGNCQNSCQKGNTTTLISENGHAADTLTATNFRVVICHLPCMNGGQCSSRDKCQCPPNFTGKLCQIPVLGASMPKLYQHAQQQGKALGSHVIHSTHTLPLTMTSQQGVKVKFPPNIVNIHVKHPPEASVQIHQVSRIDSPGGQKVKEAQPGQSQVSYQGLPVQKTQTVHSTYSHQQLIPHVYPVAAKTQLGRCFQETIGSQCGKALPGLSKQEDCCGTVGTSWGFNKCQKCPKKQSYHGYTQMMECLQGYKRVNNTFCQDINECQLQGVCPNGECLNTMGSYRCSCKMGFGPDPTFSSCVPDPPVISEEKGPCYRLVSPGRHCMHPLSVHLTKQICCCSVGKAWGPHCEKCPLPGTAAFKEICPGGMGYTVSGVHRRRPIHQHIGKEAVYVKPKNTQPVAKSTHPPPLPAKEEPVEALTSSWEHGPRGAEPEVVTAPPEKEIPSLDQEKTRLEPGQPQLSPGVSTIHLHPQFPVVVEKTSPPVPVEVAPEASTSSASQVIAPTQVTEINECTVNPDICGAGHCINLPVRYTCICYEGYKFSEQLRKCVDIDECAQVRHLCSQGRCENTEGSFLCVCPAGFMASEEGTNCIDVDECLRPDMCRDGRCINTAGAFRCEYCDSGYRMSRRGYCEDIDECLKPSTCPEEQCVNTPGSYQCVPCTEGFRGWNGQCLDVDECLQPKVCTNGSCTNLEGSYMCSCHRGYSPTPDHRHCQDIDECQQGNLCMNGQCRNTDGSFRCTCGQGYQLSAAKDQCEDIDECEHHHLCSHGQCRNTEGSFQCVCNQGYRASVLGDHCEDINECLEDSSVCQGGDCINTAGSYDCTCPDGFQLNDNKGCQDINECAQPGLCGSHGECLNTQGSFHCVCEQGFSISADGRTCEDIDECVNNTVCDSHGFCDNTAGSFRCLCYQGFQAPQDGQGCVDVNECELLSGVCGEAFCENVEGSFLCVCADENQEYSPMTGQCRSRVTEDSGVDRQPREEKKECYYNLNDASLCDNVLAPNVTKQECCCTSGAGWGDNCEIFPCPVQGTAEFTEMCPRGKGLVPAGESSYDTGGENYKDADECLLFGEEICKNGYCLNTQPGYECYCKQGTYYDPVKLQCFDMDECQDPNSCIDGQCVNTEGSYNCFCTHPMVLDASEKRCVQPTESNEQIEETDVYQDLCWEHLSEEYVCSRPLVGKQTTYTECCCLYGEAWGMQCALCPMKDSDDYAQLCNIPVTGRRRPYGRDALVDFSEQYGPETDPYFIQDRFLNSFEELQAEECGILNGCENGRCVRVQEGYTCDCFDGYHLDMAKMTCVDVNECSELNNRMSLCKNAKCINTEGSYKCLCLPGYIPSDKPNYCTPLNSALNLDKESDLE
Sequence (P04202 30-390 limits assumed, chain 2 of 2): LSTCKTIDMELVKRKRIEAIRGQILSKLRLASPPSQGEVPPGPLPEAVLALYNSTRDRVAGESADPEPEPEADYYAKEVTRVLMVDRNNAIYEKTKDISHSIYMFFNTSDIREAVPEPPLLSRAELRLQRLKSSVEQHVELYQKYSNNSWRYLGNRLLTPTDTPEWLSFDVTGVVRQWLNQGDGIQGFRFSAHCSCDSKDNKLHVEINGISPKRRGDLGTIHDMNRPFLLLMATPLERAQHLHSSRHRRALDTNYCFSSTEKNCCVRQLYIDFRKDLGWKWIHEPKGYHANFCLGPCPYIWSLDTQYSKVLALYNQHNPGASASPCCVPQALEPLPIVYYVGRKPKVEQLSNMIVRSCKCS
Test: cell-based or functional assay
Measured parameter: IC50, mLTBP1 assay (CAGA12 luciferase) (nM)
Numbers only, in nM.

Please review the entries below; each comes with its answer.
{"Binder": "SR-AB10 (antibody, IgG1, V domains shown, Parent antibody) VH: QLQLQESGGGVVQPGRSLRLSCAASGFTFNNYPIHWVRQAPGKGLEWVAVMSYDGINKYYADSVKGRFTISRDNSKNTLYLQMNSLRAEDTAVYYCARPRIAARRGGFDYWGQGTLVTVSS VL: NFMLTQPHSVSESPGKTVTISCTRSSGNIDNNYVQWYQQRPGSSPTTVIYEDNQRPSGVPDRFSGSIDSSSNSASLTISGLKTEDEADYYCQSYDSDNQGVVFGGGTKLTVL", "Endpoint unit": "nM", "IC50, mLTBP1 assay (CAGA12 luciferase)": 119}
{"Binder": "SR-AB22 (antibody, IgG1, V domains shown, Cycle 2, lineage SR-AB14) VH: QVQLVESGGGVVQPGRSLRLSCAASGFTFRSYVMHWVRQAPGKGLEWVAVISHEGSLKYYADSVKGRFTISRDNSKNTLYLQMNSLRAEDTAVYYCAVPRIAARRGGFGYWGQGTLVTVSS VL: NFMLTQPHSVSESPGKTVTISCTRSSGNIDNNYVQWYQQRPGSSPTTVIYEDNQRPSGVPDRFSGSIDSSSNSASLTISGLKTEDEADYYCQSYDSDNQGVVFGGGTKLTVL", "Endpoint unit": "nM", "IC50, mLTBP1 assay (CAGA12 luciferase)": 1.39}

Memo: SR-AB37 (antibody, IgG1, V domains shown, Cycle 3, lineage SR-AB22) VH: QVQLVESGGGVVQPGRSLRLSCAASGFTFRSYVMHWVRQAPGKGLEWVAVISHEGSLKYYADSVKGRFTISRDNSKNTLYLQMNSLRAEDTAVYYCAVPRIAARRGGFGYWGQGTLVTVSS VL: NFMLTQPHSVSESPGKTVTISCTRSSGLIDDNYVQWYQQRPGSSPTTVIYEDNQRPSGVPDRFSGSIDSSSNSASLTISGLKTEDEADYYCQSYDSDLQRVVFGGGTKLTVL , reported IC50, mLTBP1 assay (CAGA12 luciferase): 0.543
